Assay: Binding affinity to gp130 (unknown origin) assessed as dissociation constant by SPR analysis
Design: species or system Homo sapiens
measurementName: Kd (µM)
Quick reminder: number only, in µM, skip the unit.

**Query** Provide only the value of recorded Kd for `CCCCC1=C(C)C(=O)[C@@](C)(CN2c3ccccc3[C@]3(O)CCO[C@H]23)C1=O`
**Result** 288

###

Target protein (sequence): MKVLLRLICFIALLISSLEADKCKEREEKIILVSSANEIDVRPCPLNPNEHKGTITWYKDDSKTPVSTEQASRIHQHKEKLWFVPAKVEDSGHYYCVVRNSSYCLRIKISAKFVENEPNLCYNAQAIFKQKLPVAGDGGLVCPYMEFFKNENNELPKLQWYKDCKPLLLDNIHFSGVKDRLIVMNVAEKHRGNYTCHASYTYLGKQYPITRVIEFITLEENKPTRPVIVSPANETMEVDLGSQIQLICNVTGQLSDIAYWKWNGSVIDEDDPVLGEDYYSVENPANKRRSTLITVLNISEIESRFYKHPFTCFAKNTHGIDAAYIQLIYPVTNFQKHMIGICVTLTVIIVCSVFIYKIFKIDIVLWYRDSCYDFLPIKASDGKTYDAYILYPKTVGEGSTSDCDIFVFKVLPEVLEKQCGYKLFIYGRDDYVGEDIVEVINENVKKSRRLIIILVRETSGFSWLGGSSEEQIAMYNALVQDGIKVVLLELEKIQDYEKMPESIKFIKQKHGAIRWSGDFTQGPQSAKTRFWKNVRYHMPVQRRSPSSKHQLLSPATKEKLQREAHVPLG
measurementName: Kd (µM)
Respond numerically; units are µM and should not be typed.

**Query** Supply measured Kd of `NCCc1c(-c2ccccc2)n(-c2ccccc2)c2ccccc12` in your reply.
**Result** 316

###

Target: Interleukin-4 (Homo sapiens)
Sequence (P05112 whole entry): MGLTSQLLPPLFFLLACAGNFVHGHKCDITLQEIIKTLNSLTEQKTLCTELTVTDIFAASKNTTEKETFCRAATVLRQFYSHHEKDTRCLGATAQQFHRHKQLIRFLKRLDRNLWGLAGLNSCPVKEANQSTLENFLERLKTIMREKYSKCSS
measurementName: Kd (nM)
Respond numerically; units are nM and should not be typed.

**Query** Please look at this molecule and report its Kd: `N#Cc1c(-c2ccc(O)c(O)c2)cc(-c2ccc(F)cc2)nc1N`
**Result** 1800

###

Molecular target: Interleukin-4 (Homo sapiens, UniProt P05112)
Experiment: Inhibition of IL-4 (unknown origin) in human THP-1 cells assessed as inhibition of STAT6 phosphorylation by HEK-Blue assay
measurementName: pEC50
Entry type: numeric. Quantity: pEC50, the -log10 of concentration in molar units.

**Query** Supply recorded pEC50 for `N#Cc1c(-c2ccc(O)c(O)c2)cc(-c2ccc(F)cc2)nc1N` here.
**Result** 5.51

###

Assay: Inhibition of IL-6/gp130 (unknown origin) by SPR analysis
Parameters: species or system Homo sapiens
measurementName: Kd (nM)
Reply numerically in nM, unit not repeated.

**Query** Respond only with Kd recorded for `Brc1ccc(Nc2nc(-c3ccccc3)cs2)cc1`
**Result** 2900

###

Biological target: Interleukin-18 (Homo sapiens)
Sequence (Q14116 whole entry): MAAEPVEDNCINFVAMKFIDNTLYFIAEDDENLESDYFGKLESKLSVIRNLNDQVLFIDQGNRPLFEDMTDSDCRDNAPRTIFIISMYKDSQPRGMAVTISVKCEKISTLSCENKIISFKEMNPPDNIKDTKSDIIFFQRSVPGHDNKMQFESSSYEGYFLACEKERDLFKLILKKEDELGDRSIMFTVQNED
Test: Inhibition of human IL-18 expressed in Escherichia coli BL21(DE3) cells incubated for 18 hrs
measurementName: EC50 (nM)
# number only, unit nM dropped from output

**Query** Give me measured EC50, please, for this molecule: `N#Cc1ccc(NC(=O)Nc2ccc(Oc3ccc(NC(=O)Nc4ccc(C#N)cc4)cc3)cc2)cc1`
**Result** 250
